target or test system: UniProtKB P00734
experiment description: Inhibition of human thrombin amidolytic activity using D-Phe-Pip-Arg-pNA as substrate at 0.1 to 1000 uM preincubated for 10 mins followed by substrate addition measured every 12 secs for 10 mins by spectrophotometric analysis
The source made the active and inactive calls. The calls are words filed in the database; no cut-off is given here.

chemical string	target or test system	inhibition
C[C@@H]1O[C@@H](O[C@H]2[C@H](Oc3cc(O)c4c(c3)O[C@H](c3ccc(O)cc3)CC4=O)O[C@H](CO)[C@@H](O)[C@@H]2O)[C@H](O)[C@H](O)[C@H]1O	UniProtKB P00734	inactive
O=C(O)c1cc(O)c(O)c(O)c1	UniProtKB P00734	inactive
O=C(/C=C/c1ccc(O)c(O)c1)O[C@@H]1C[C@](O)(C(=O)O)C[C@@H](O)[C@H]1O	UniProtKB P00734	inactive
